Test system: Alopecurus myosuroides
Test: Pre-emergence herbicidal action, ALOMY
Format: in vivo
Details: dosage 320 g/ha, scored visually after 3 weeks vs untreated controls
The following molecules are shown together with reported herbicidal activity ALOMY values.

[
  {
    "molecule": "Cc1c(C(=O)Nc2nnnn2C)ccc(C(F)F)c1S(C)(=O)=O",
    "metricName": "herbicidal activity ALOMY",
    "measuredResult": "100%"
  },
  {
    "molecule": "CCSc1c(C(F)F)ccc(C(=O)Nc2nnc(C)o2)c1Cl",
    "metricName": "herbicidal activity ALOMY",
    "measuredResult": "100%"
  },
  {
    "molecule": "CCc1c(C(=O)Nc2nnc(C)o2)ccc(C(F)F)c1SC",
    "metricName": "herbicidal activity ALOMY",
    "measuredResult": "80%"
  }
]

Value of herbicidal activity ALOMY reported for the molecule Cn1nnnc1NC(=O)c1ccc(C(F)F)c([S+](C)[O-])c1F (centres unmarked) is 100%

Record summary for CCS(=O)(=O)c1c(C(F)F)ccc(C(=O)Nc2nnnn2C)c1I : reported herbicidal activity ALOMY = 100%

====

Test system: Stellaria media
Test: Pre-emergence herbicidal action, STEME
Assay type: in vivo
Conditions: dosage 320 g/ha, scored visually after 3 weeks vs untreated controls
Here, each record is paired with measured Herbicidal activity STEME data.
Reply numerically in %, unit not repeated.

Sample CCn1nnnc1NC(=O)c1ccc(C(F)F)c([S+]([O-])CC)c1C (centres unmarked) ; Herbicidal activity STEME observed: 90

Form: compound = CCc1c(C(=O)Nc2nnc(C)o2)ccc(C(F)F)c1S(C)(=O)=O ; Herbicidal activity STEME = 100

CCSc1c(C(F)F)ccc(C(=O)Nc2nnc(C)o2)c1CC yielded Herbicidal activity STEME of 100

Reported Herbicidal activity STEME ( CCSc1c(C(F)F)ccc(C(=O)Nc2nnc(C)o2)c1Br ) = 100

What the record says about CCn1nnnc1NC(=O)c1ccc(C(F)F)c(S(=O)(=O)CC)c1C1CC1 : Herbicidal activity STEME is 100

====

System: Polygonum convolvulus
Assay: Pre-emergence herbicidal action, POLCO
Format: in vivo
Conditions: dosage 320 g/ha, Table K
metricName: Herbicidal efficacy against POLCO
Answer field: number only, no words.

Entry Cc1c(C(=O)Nc2nnnn2C)ccc(C(F)F)c1[S+](C)[O-] (stereo not drawn) ; Herbicidal efficacy against POLCO = 80

Sure, the documented Herbicidal efficacy against POLCO for Cn1nnnc1NC(=O)c1ccc(C(F)F)c(S(C)(=O)=O)c1Cl is 90

Item: Cn1nnnc1NC(=O)c1ccc(C(F)F)c([S+](C)[O-])c1Cl (stereo not drawn) | Herbicidal efficacy against POLCO: 90

Briefly, Herbicidal efficacy against POLCO measured for Cc1c(C(=O)Nc2nnnn2C)ccc(C(F)F)c1S(C)(=O)=O : 90

# Herbicidal efficacy against POLCO of Cc1c(C(=O)Nc2ncnn2C)ccc(C(F)F)c1S(C)(=O)=O = 70

# molecule CSc1c(C(F)F)ccc(C(=O)Nc2ncnn2C)c1C ; its Herbicidal efficacy against POLCO = 30

====

System: Stellaria media
Assay: Pre-emergence herbicidal action, STEME
Assay type: in vivo
Settings: dosage 320 g/ha, scored visually after 3 weeks vs untreated controls
Form field: Herbicidal activity STEME (one value per entry).
Value expressed in %; do not type the unit.

Lab note: CCn1nnnc1NC(=O)c1ccc(C(F)F)c(S(=O)(=O)CC)c1C [Example 2-6] gave Herbicidal activity STEME of 100

Herbicidal activity STEME measured on CSc1c(C(F)F)ccc(C(=O)Nc2nnnn2C)c1F [Example 1-37] = 100

# Herbicidal activity STEME of CSc1c(C(F)F)ccc(C(=O)Nc2nonc2C)c1C [Example 5-1] = 90
